- system: UniProt P21802
- Sequence (P21802 22-821 limits assumed): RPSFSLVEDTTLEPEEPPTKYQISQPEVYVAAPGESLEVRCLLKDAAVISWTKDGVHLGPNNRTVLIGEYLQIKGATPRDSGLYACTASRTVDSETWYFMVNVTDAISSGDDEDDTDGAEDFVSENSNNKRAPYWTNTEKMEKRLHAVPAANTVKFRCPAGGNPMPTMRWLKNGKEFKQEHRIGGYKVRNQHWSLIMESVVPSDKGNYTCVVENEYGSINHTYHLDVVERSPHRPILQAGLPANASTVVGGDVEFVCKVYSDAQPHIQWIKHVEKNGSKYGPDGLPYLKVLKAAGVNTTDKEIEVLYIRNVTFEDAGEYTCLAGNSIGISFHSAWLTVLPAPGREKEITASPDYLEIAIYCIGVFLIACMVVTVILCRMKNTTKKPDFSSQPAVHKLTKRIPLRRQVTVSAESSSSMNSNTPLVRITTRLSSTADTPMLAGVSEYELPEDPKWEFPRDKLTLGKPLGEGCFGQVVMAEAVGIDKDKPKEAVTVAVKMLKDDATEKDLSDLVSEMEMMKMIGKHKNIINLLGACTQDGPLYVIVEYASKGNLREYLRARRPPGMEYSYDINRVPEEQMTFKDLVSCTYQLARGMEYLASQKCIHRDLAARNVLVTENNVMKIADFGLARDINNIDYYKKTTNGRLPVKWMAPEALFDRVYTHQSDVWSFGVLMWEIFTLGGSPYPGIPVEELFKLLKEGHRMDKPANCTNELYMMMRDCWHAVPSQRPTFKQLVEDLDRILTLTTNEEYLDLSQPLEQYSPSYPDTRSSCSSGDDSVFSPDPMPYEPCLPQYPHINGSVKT
- applied.conditions: Compound concentration 20.0 uM
- Description: Thermal Shift Assay. Domain: start/stop: T457-E768
Residues, ends and D or L forms follow the SMILES beside them. *: point of attachment. Cbz = O=C(OCc1ccccc1)*
Measured ΔTm values are reported for all entries that follow.
Express it in °C; write the number only.

Past entries and their recorded results:
compound	system	result.unit	ΔTm
C[C@H](NC(=O)[C@H](Cc1ccccc1)NC(=O)OCc1ccccc1)C(=O)CF	UniProt P21802	°C	0.14
Cn1c(NCCN(CCO)CCCc2ccc([N+](=O)[O-])cc2)cc(=O)n(C)c1=O	UniProt P21802	°C	0.47
N[C@](CCCCB(O)O)(CCN1CCCCC1)C(=O)O	UniProt P21802	°C	0.8
O=C(NCCCn1ccnc1)c1cc2nc(-c3ccccc3)cc(-c3ccccc3)n2n1	UniProt P21802	°C	0.5
N=C(N)SCc1ccc(CN2C(=O)C(=O)c3cc(Br)cc(Br)c32)cc1	UniProt P21802	°C	-6.45
C[C@@H]1CN(Cc2ncccn2)C[C@H]1c1nc2c(cnn2C2CCOCC2)c(=O)[nH]1	UniProt P21802	°C	0.17

Answer with the recorded ΔTm for the compound listed here: CC(C)(C)c1ccc(CN(C(=O)CN(Cc2c(F)c(F)c(F)c(F)c2F)S(=O)(=O)c2ccc(F)cc2)c2ccc(C(=O)NO)cc2)cc1
1.58

Answer with the recorded ΔTm for the compound listed here: CCc1ccccc1NC(=O)CSC(=O)NNC(=O)[C@H](Cc1c[nH]c2ccccc12)NC(=O)OC(C)(C)C
-9.39

Answer with the recorded ΔTm for the compound listed here: Cc1nc(Nc2ncc(C(=O)Nc3c(C)cccc3Cl)s2)cc(N2CCN(CCO)CC2)n1
4.7

Answer with the recorded ΔTm for the compound listed here: CC(C)(O)c1ccc(N2Cc3c(ccnc3-c3ccc(F)cc3OCC(F)(F)F)C2=O)cc1
-4.87

Answer with the recorded ΔTm for the compound listed here: CCCC[C@]1(CC)CS(=O)(=O)c2cc(CNC(CC(=O)O)CC(=O)O)c(OC)cc2[C@@H](c2ccccc2)N1
0.6

Answer with the recorded ΔTm for the compound listed here: CSc1cccc(Nc2ncc3cc(-c4c(Cl)cccc4Cl)c(=O)n(C)c3n2)c1
-0.92

Answer with the recorded ΔTm for the compound listed here: Cc1cc(C)c(-c2[nH]nc(C)c2C)cc1C(=O)N1CC(c2ccc(C#N)cc2)C1
-0.22

Answer with the recorded ΔTm for the compound listed here: COc1cc(Oc2ccnc3cc(OC)c(OC)cc23)ccc1NC(=O)NC(C)c1nccs1 (configuration not stated)
-3.29

Answer with the recorded ΔTm for the compound listed here: Cc1noc2c1-c1ccccc1C(c1ccc(Cl)cc1)=N[C@H]2CC(N)=O
-0.03

Answer with the recorded ΔTm for the compound listed here: O=C(Nc1c(Cl)cncc1Cl)c1ccc(OC(F)F)c(OCC2CC2)c1
0.95

Answer with the recorded ΔTm for the compound listed here: OC[C@H]1O[C@@H](c2ccc(F)c(Cc3cc4ccccc4s3)c2)[C@H](O)[C@@H](O)[C@@H]1O
-0.55

Answer with the recorded ΔTm for the compound listed here: CC(=O)N[C@@H](Cc1ccc(O)cc1)C(=O)N[C@H](C(=O)N[C@@H](C)C(=O)N[C@H](C=O)CC(=O)O)C(C)C
0.54

Answer with the recorded ΔTm for the compound listed here: Cc1cc(OCCCNCC(C)(C)C(N)=O)ccc1Cc1c(O[C@@H]2O[C@H](CO)[C@@H](O)[C@H](O)[C@H]2O)n[nH]c1C(C)C
-0.15

Answer with the recorded ΔTm for the compound listed here: CN1CCc2c(n(Cc3ccc(C(=O)NO)cc3)c3ccccc23)C1
-3.78

Answer with the recorded ΔTm for the compound listed here: CN1CCN(c2nc(-c3ccc(C(=O)NC4(C(=O)NCC#N)CCCCC4)cc3)cs2)CC1
0.15

Answer with the recorded ΔTm for the compound listed here: O=CC1CCCN1C(=O)C1CCCN1C(=O)OCc1ccccc1 (stereo not drawn) (Cbz-Pro-Pro-aldehyde; configuration not given here)
0.49

Answer with the recorded ΔTm for the compound listed here: Cc1nnn(C)c1-c1cnc2c3cc4cnn(C)c4cc3n([C@H](c3ccccc3)C3CCOCC3)c2c1
-0.32

Answer with the recorded ΔTm for the compound listed here: Cc1cc(C)c(CNC(=O)c2cc(Cl)c3c(c2C)O[C@@](C)([C@H]2CC[C@H](N(C)C)CC2)O3)c(=O)[nH]1
-1.83
